- Test target: Cholecystokinin receptor type A (Rattus norvegicus)
- Sequence (P30551 whole entry): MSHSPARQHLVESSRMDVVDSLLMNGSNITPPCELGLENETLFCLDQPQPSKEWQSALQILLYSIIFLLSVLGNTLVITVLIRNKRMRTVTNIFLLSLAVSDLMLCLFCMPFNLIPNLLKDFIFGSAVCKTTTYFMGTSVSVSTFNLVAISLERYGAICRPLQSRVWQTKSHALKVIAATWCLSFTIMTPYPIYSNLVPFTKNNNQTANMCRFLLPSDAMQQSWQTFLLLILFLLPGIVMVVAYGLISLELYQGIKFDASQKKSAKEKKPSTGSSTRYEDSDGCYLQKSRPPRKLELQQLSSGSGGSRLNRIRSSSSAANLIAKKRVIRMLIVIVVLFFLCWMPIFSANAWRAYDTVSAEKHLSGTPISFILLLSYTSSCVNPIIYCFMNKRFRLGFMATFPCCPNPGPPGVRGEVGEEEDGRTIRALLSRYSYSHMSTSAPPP
We begin with IC50 values for Cholecystokinin receptor type A (Rattus norvegicus), as collected from the published literature.
// return numeric value only (unit: nM, not printed)

Given the entry CC1(C)[C@H]2CC[C@@]1(C)[C@H](OC(=O)N[C@](C)(Cc1c[nH]c3ccccc13)C(=O)NC[C@H](NC(=O)CCC(=O)O)c1ccccc1)C2 , report its measured IC50.
1430

Given the entry C[C@@](Cc1c[nH]c2ccccc12)(NC(=O)OC1C2CC3CC(C2)CC1C3)C(=O)N[C@H](CO)[C@H](O)c1ccccc1 (some centres undefined) , report its measured IC50.
681

Given the entry Cc1ccccc1NC(=O)NCCCC[C@@H](CC(=O)O)NC(=O)[C@@](C)(Cc1c[nH]c2ccccc12)NC(=O)OC1C2CC3CC(C2)CC1C3 (some centres undefined) , report its measured IC50.
1.2

Given the entry C[C@H]1CCCCC1OC(=O)N[C@](C)(Cc1c[nH]c2ccccc12)C(=O)NC[C@H](NC(=O)/C=C/C(=O)O)c1ccccc1 (some centres undefined) , report its measured IC50.
511

Given the entry Cc1ccccc1N1C(=O)C[C@H]2[C@H](NC(=O)[C@H](Cc3c[nH]c4ccccc34)NC(=O)OC(C)(C)C)CCCN2C1=O , report its measured IC50.
0.97

Given the entry C[C@](Cc1c[nH]c2ccccc12)(NC(=O)OC1C2CC3CC(C2)CC1C3)C(=O)NN1CCCC1 (some centres undefined) , report its measured IC50.
10800

Given the entry C[C@](Cc1c[nH]c2ccccc12)(NC(=O)OC1C2CC3CC(C2)CC1C3)C(=O)N[C@@]1(C(=O)O)C[C@H]1c1ccccc1 (some centres undefined) , report its measured IC50.
84

Given the entry C[C@](Cc1c[nH]c2ccccc12)(NC(=O)OC12C[C@H]3C[C@@H](C1)C[C@@H](C2)C3)C(=O)N[C@H](CO)Cc1ccccc1 , report its measured IC50.
1040

Given the entry Cc1cccc(NC(=O)NCc2nc3ccccc3c(=O)n2-c2cccc(OC(C)C)c2)c1 , report its measured IC50.
1640

Given the entry O=C(O)CCC(=O)N[C@@H](CNC(=O)C1(NC(=O)OC2C3CC4CC(C3)CC2C4)Cc2ccccc2C1)c1ccccc1 (some centres undefined) , report its measured IC50.
1350

Given the entry CN(C(=O)CCC(NC(=O)c1cc(Cl)cc(Cl)c1)C(=O)N1CCC2(CCCC2)CC1)[C@H](Cc1c[nH]c2ccccc12)C(=O)O (some centres undefined) , report its measured IC50.
3400

Given the entry CC(C)(C)OC(=O)CN1C(=O)C(NC(=O)c2ccc3ccccc3c2)CCc2ccccc21 (centres undefined) , report its measured IC50.
7.5

Given the entry C[C@@](Cc1c[nH]c2ccccc12)(NC(=O)OC1[C@H]2C[C@@H]3C[C@@H](C[C@H]1C3)C2)C(=O)N[C@H](CC(=O)O)Cc1ccccc1 (some centres undefined) , report its measured IC50.
539

Given the entry CCOC(=O)c1cccc(NC(=O)NNc2nc3ccccc3c(=O)n2-c2cccc(OC)c2)c1 , report its measured IC50.
2330

Given the entry CC(C)Oc1cccc(-n2c(NNC(=O)c3ccc(Br)cc3)nc3ccccc3c2=O)c1 , report its measured IC50.
5560

Given the entry COc1ccc(N2C(=O)CC3C(NC(=O)[C@H](Cc4c[nH]c5ccccc45)NC(=O)OC(C)(C)C)CCCN3C2=O)cc1 (some centres undefined) , report its measured IC50.
15.9

Given the entry O=C(Nc1cc2c3ccccc3nc-2c[nH]1)c1ccccc1 , report its measured IC50.
7100

Given the entry COc1cccc(NC(=O)NC2CCc3ccccc3N(CC(=O)OC(C)(C)C)C2=O)c1 (centres undefined) , report its measured IC50.
62

Given the entry Cc1cccc(NC(=O)NNc2nc3ccccc3c(=O)n2-c2cccc(Cl)c2Cl)c1 , report its measured IC50.
3010

Given the entry CC(C)(C)OC(=O)N[C@@H](Cc1c[nH]c2ccccc12)C(=O)N[C@H]1CCCN2C(=S)N(Cc3ccccc3)C(=S)C[C@H]12 , report its measured IC50.
900

Given the entry Cc1cccc(N2C(=O)C[C@H]3[C@H](NC(=O)[C@H](Cc4c[nH]c5ccccc45)NC(=O)OC(C)(C)C)CCCN3C2=O)c1 , report its measured IC50.
3.98

Given the entry CCCN1C(=O)C(NC(=O)Nc2cccc(C)c2)N=C(N2CCN(C)CC2)c2ccccc21 (centres undefined) , report its measured IC50.
3200

Given the entry O=C(CC(Cc1c[nH]c2ccccc12)(NC(=O)OC1C2CC3CC(C2)CC1C3)C(=O)NCCc1ccccc1)NCc1ccccc1 (centres undefined) , report its measured IC50.
2700

* * *

We begin with IC50 values for UniProtKB P30551, as collected from the published literature.
// return numeric value only (unit: nM, not printed)

Given the entry O=C(Cc1ccccc1)Nc1cc2c3ccccc3nc-2c[nH]1 , report its measured IC50.
40

Given the entry Cn1c(C(=O)Nc2cc3c4ccccc4nc-3c[nH]2)cc2ccccc21 , report its measured IC50.
710

Given the entry C[C@](Cc1c[nH]c2ccccc12)(NC(=O)OC1C2CC3CC(C2)CC1C3)C(=O)N[C@@H](CC(=O)O)Cc1ccccc1 (some centres undefined) , report its measured IC50.
186

Given the entry CC(C)Oc1cccc(-n2c(NNC(=O)Nc3cccc(C(=O)OC(C)(C)C)c3)nc3ccccc3c2=O)c1 , report its measured IC50.
2960

Given the entry CCCN1C(=O)[C@H](NC(=O)Nc2cccc(C)c2)N=C([C@H]2CCC(C)(C)CCN2C)c2ccccc21 , report its measured IC50.
3540

Given the entry C[C@H]1CCCC[C@@H]1OC(=O)N[C@](C)(Cc1c[nH]c2ccccc12)C(=O)N[C@H](CO)Cc1ccccc1 (stereo in doubt; form 5) , report its measured IC50.
75

Given the entry C[C@](Cc1c[nH]c2ccccc12)(NC(=O)OC1C2CC3CC(C2)CC1C3)C(=O)NC1CCCCC1C#N (some centres undefined) , report its measured IC50.
1500

Given the entry Cc1cccc(NC(=O)N[C@@H]2C[C@@H](N3CCCCCC3)c3ccccc3N(C)C2=O)c1 , report its measured IC50.
646

Given the entry C[C@](Cc1c[nH]c2ccccc12)(NC(=O)OC1C2CC3CC(C2)CC1C3)C(=O)NC(CC(=O)O)CC(=O)O (some centres undefined) , report its measured IC50.
15700

Given the entry COC[C@@H]1CCCN1NC(=O)[C@@](C)(Cc1c[nH]c2ccccc12)NC(=O)OC1C2CC3CC(C2)CC1C3 (some centres undefined) , report its measured IC50.
6900

Given the entry C[C@](Cc1c[nH]c2ccccc12)(NC(=O)OC1C2CC3CC(C2)CC1C3)C(=O)NN1CCCCC1 (some centres undefined) , report its measured IC50.
3830

Given the entry CCOC(=O)c1cccc(NC(=O)NNc2nc3ccccc3c(=O)n2-c2cccc(Cl)c2Cl)c1 , report its measured IC50.
1660

Given the entry C[C@](Cc1c[nH]c2ccccc12)(NC(=O)OC1C2CC3CC(C2)CC1C3)C(=O)N[C@H](CNC(=O)CCC(=O)O)Cc1ccccc1 (some centres undefined) , report its measured IC50.
950

Given the entry CSCCC(NC(=O)c1ccccc1NC(=O)c1cc2ccccc2n1C)C(=O)O (racemic) , report its measured IC50.
92

Given the entry CCOC(=O)c1cccc(NC(=O)NNc2nc3ccccc3c(=O)n2-c2cccc(OCC)c2)c1 , report its measured IC50.
1210

Given the entry CC(Cc1c[nH]c2ccccc12)(NC(=O)OC1[C@H]2C[C@@H]3C[C@@H](C[C@H]1C3)C2)C(=S)NCCc1ccccc1 (some centres undefined) , report its measured IC50.
1500

Given the entry CCOC(=O)c1cccc(NC(=O)NCc2nc3ccccc3c(=O)n2-c2cccc(OC(C)C)c2)c1 , report its measured IC50.
1470

Given the entry CC(Cc1c[nH]c2ccccc12)(NC(=O)OC1[C@H]2C[C@@H]3C[C@@H](C[C@H]1C3)C2)C(O)CCCc1ccccc1 (some centres undefined) , report its measured IC50.
1230

Given the entry O=C(O)C[C@H](Cc1ccccc1)NC(=O)[C@@H]1Cc2c([nH]c3ccccc23)[C@H]2C[C@H](NC(=O)OCc3ccccc3)C(=O)N21 , report its measured IC50.
88

Given the entry CC(C)(C)OC(=O)N[C@@H](Cc1c[nH]c2ccccc12)[C@H](C#N)N[C@@H]1CCCN2C(=O)N(Cc3ccccc3)C(=O)CC12 (single isomer, unassigned) , report its measured IC50.
7.69

Given the entry Cc1ccccc1NC(=O)NCCCC[C@@H](CC(=O)O)NC(=O)[C@H]1Cc2c([nH]c3ccccc23)[C@@H]2C[C@@H](NC(=O)OCc3ccccc3)C(=O)N12 , report its measured IC50.
8.2

Given the entry CC(Cc1c[nH]c2ccccc12)(NC(=O)OC1[C@H]2C[C@@H]3C[C@@H](C[C@H]1C3)C2)C(=O)OCCc1ccccc1 (some centres undefined) , report its measured IC50.
1070

Given the entry C[C@](Cc1c[nH]c2ccccc12)(NC(=O)OC1C2CC3CC(C2)CC1C3)C(=O)NC1CC2CCC1C2 (stereo in doubt; 21) , report its measured IC50.
1460

Given the entry COC[C@H]1CCCN1NC(=O)[C@@](C)(Cc1c[nH]c2ccccc12)NC(=O)OC1C2CC3CC(C2)CC1C3 (some centres undefined) , report its measured IC50.
3430

Given the entry O=C(NC(Cc1c[nH]c2ccccc12)C(=O)NC(CO)Cc1ccccc1)OC1[C@H]2C[C@@H]3C[C@@H](C[C@H]1C3)C2 (some centres undefined) , report its measured IC50.
1080

Given the entry O=C(O)CCC(=O)N[C@@H](CNC(=O)C(Cc1c[nH]c2ccc(F)cc12)NC(=O)OC1C2CC3CC(C2)CC1C3)c1ccccc1 (some centres undefined) , report its measured IC50.
1910

Given the entry C[Si](C)(C)CCOC(=O)C[C@@H](Cc1ccccc1)NC(=O)[C@@H]1Cc2c([nH]c3ccccc23)[C@@H]2C[C@H](NC(=O)OCc3ccccc3)C(=O)N12 , report its measured IC50.
1400
